Task for the reader: assign each of the following compounds its reported hERG Patch Clamp hERG % blk.
biological target: hERG potassium channel (Homo sapiens, UniProt Q12809); experiment: hERG screening assay (PatchXpress patch clamp, CHO cell line); conditions: 1 μM
Sequence (Q12809 whole entry): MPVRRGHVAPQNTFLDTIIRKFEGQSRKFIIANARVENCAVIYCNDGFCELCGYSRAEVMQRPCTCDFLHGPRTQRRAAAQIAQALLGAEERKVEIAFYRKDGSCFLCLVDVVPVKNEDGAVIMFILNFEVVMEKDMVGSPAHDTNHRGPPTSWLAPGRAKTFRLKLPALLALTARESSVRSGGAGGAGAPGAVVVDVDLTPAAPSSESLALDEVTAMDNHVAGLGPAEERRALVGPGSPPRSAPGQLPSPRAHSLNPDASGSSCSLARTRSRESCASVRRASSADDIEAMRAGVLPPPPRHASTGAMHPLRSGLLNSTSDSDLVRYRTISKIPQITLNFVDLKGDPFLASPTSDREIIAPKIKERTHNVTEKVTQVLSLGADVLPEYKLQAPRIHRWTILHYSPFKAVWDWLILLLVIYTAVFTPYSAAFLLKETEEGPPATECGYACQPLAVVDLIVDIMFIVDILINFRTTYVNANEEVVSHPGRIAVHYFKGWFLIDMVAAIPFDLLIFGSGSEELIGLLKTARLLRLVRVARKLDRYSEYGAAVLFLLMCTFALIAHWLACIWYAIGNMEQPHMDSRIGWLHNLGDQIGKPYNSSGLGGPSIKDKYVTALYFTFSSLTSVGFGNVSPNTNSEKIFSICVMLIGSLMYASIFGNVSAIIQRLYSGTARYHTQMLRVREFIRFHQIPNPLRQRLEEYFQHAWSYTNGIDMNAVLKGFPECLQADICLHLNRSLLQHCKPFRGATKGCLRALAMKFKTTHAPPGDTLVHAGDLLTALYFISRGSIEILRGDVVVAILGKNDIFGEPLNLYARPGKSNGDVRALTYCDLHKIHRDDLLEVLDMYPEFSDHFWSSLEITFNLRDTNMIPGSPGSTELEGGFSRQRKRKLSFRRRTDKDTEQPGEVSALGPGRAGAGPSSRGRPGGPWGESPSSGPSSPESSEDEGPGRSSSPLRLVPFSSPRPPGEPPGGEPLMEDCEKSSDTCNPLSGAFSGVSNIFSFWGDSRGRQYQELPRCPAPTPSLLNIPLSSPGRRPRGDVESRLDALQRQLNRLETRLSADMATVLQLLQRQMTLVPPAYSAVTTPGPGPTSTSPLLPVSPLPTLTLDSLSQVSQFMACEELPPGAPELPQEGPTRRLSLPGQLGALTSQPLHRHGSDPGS
Your answer should be a plain number; it is taken to be in %.

Request the reported hERG Patch Clamp hERG % blk associated with CCOC(=O)C1=C(C)NC(C)=C(C(=O)OCC)C1c1cc2ccccc2o1 [PT-122] 15.5

Next compound: CC1=C(C(=O)OC(C)Cc2ccccc2)C(c2cccc3ccccc23)n2nnnc2N1 (stereo not shown) [PT-064] 20.5

Next compound: CC1=C(C(=O)OCc2ccccc2)C(c2cccc3ccccc23)n2nnnc2N1 (stereo not shown) [PT-027] 14.0

Next compound: CCOC(=O)C1=C(C)N(C)C(C)=C(C(=O)OCC)C1c1cccc2ccccc12 [PT-191] 26.5

Next compound: CCOC(=O)C1=C(CC)NC(CC)=C(C(=O)OCC)C1c1ccc(Br)s1 [PT-181] 10.5

Next compound: CCCC1=C(C(=O)OCC)C(c2ccsc2)C2=C(CC(c3ccccc3)CC2=O)N1 (stereo not shown) [PT-149] 24.3

Next compound: CC1=C(C(=O)NCc2ccccc2)C(c2ccsc2)C2=C(CCCC2=O)N1 (stereo not shown) [PT-178] 11.5

Next compound: CC(=O)c1ccc(-c2ccccc2C2C(C(=O)OCc3ccccc3)=C(C)Nc3nnnn32)cc1 (stereo not shown) [PT-415] 10.5

Next compound: CCOC(=O)C1=C(C)Nc2nnnn2C1c1ccccc1-n1cccn1.Cl (stereo not shown) [PT-477] 12.0

Next compound: CCOC(=O)C1=C(C)Nc2nnnn2C1c1ccccc1-n1ccnc1.Cl (stereo not shown) [PT-476] 17.5

Next compound: CC1=C(C(=O)OCc2ccccc2)C(c2ccccc2N2CCN(S(C)(=O)=O)CC2)n2nnnc2N1 (stereo not shown) [PT-339] 11.5

Next compound: CCOC(=O)C1=C(C)NC2=C(C(=O)CCC2)C1c1ccco1 (stereo not shown) [PT-153] 10.5

Next compound: CC1=C(C(=O)OCc2ccccc2)C(c2cccc3ccccc23)n2nnnc2N1C (stereo not shown) [PT-195] 12.5

Next compound: CCOC(=O)C1=C(C)Nc2nc(C#N)c(C#N)n2C1c1cccc2ccccc12 (stereo not shown) [PT-194] 25.0

Next compound: CC1=C(C(=O)OC2CCc3ccccc32)C(c2cccc3ccccc23)n2nnnc2N1 (stereo not shown) [PT-062] 14.0

Next compound: CCOC(=O)C1=C(C)Nc2nccn2C1c1ccc2ccccc2c1 (stereo not shown) [PT-086] 13.5

Next compound: COc1cc(Cl)ccc1COC(=O)C1=C(C)Nc2nnnn2C1c1c(C)cccc1C (stereo not shown) [PT-307] 10.0

Next compound: CCOC(=O)C1=C(C)Nc2nnnn2C1c1sc2ccccc2c1C (stereo not shown) [PT-018] 14.5

Next compound: CC1=C(C(=O)OCc2ccccc2)[C@@H](c2ccccc2-c2ccc(Cl)s2)n2nnnc2N1 [PT-237] 11.5

* * *

molecular target: wild-type human cardiac sodium channel, hNav1.5 (Homo sapiens, UniProt Q14524); assay: Late INa screening assay (late sodium current, PatchXpress whole cell patch clamp); type: cell-based; settings: compound at 10 μM; read-out: Late INa % blk
Sequence (Q14524 whole entry): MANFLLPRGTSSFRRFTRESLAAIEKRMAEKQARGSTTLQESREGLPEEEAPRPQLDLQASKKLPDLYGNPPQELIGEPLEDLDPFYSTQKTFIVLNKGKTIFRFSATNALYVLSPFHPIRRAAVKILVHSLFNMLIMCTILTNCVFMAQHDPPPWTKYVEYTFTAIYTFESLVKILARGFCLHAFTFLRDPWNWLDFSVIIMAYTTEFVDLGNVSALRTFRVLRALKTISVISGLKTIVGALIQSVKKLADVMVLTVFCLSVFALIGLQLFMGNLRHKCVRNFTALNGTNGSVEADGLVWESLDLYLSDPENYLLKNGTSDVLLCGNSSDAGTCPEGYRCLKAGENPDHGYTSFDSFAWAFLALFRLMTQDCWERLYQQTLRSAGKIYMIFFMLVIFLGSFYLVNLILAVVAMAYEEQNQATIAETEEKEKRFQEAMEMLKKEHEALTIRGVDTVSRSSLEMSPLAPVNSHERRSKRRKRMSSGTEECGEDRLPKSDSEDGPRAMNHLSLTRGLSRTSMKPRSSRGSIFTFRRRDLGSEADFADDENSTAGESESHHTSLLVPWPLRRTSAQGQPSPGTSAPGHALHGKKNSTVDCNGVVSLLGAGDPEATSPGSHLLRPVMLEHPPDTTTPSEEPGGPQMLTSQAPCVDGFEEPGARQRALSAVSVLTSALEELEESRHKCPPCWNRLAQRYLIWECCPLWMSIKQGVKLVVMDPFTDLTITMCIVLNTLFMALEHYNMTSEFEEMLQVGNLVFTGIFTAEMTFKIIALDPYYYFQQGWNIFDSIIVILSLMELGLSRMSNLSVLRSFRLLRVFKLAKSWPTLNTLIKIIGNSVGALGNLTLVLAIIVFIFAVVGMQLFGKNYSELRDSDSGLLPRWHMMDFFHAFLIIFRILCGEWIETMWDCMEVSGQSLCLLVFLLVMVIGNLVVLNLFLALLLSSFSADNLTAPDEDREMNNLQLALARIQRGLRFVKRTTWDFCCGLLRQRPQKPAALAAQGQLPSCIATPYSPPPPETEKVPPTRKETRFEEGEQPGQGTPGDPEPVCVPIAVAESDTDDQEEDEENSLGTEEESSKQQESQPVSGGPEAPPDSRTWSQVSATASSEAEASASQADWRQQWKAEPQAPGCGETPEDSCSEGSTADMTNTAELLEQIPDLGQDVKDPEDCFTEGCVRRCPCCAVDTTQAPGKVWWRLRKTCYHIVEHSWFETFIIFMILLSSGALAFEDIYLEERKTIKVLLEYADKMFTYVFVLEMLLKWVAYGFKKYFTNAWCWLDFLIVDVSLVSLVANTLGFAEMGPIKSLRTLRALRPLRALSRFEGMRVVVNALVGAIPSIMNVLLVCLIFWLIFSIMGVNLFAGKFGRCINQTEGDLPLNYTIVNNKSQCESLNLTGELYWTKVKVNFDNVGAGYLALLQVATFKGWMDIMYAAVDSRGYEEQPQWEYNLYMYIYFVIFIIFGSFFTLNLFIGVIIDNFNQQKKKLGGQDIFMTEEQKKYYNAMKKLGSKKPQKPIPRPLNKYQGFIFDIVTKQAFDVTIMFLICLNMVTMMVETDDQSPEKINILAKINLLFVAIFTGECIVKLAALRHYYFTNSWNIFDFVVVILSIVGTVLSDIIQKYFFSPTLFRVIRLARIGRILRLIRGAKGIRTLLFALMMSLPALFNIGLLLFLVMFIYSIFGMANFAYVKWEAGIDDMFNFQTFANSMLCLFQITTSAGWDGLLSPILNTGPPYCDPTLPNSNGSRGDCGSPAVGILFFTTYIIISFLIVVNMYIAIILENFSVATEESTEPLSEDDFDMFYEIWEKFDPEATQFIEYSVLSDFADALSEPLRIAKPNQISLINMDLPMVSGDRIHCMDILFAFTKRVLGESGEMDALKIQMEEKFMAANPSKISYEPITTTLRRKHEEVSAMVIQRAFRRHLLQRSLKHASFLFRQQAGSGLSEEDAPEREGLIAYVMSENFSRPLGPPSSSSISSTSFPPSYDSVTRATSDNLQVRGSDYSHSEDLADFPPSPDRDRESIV
Everything with inhibition at 10 µM lower than 20% is No; everything else, including exactly 20%, is Yes.

# bool: inhibition at 10 µM of CC1=C(C(=O)OCc2ccccc2)C(c2cncs2)n2nnnc2N1 (stereo not shown) >= 20% Yes

Next compound: CC1=C(C(=O)OCc2ccccc2)C(c2cccs2)c2cn[nH]c2N1 (stereo not shown) Yes

Next compound: CC1=C(c2nnc(Cc3ccccc3)o2)C(c2cccc3ccccc23)n2nnnc2N1 (stereo not shown) Yes

Next compound: COC(=O)C1=C(C)Nc2nnnn2C1c1c(-c2ccc(C(=O)O)cc2)sc2ccccc12 (stereo not shown) No

Next compound: CCOC(=O)C1=C(C)NC(C)=C(C(=O)OCC)C1c1ccc(CC)s1 Yes

Next compound: COc1ccc2c(C3C(C(=O)OCc4ccccc4)=C(C)Nc4nnnn43)ccc(OC)c2c1 (stereo not shown) Yes

Next compound: CC1=C(C(=O)OC(C)C)C(c2cccc3ccccc23)n2nnnc2N1 (stereo not shown) Yes

Next compound: CC1=C(C(=O)NCc2ccccc2)C(c2cccc3ccccc23)n2nnnc2N1 (stereo not shown) Yes

Next compound: CC1=C(C(=O)OCc2ccccc2)C(c2ccccc2-c2cccc(C(=O)O)c2)n2nnnc2N1 (stereo not shown) No

Next compound: CC1=C(C(=O)OCc2ccccc2)C(c2cc(C)c(C)s2)n2nnnc2N1 (stereo not shown) Yes

Next compound: COC(=O)C1=C(C)Nc2nnnn2C1c1cccc2ccccc12 (stereo not shown) Yes

Next compound: COCCOC(=O)C1=C(C)NC(C)=C(C(=O)OCCOC)C1c1sccc1Br No

Next compound: CC1=C(C(=O)OCc2ccccc2)C(c2cc(Br)ccc2OCc2ccccc2)n2nnnc2N1 (stereo not shown) Yes

Next compound: CCOC(=O)C1=C(C)NC(C)=C(C(=O)OCC)C1c1ccc(N(C)C)cc1OC No

Next compound: CC1=C(C(=O)OCc2ccccc2)C(c2ccc(N(C)C)cc2)n2nnnc2N1 (stereo not shown) No

Next compound: COC(=O)C1=C(C)Nc2nnnn2C1c1c(-c2cccc(C(=O)O)c2)sc2ccccc12 (stereo not shown) No

Next compound: CCOC(=O)C1=C(C)NC2=C(C(=O)CCC2)C1c1ccccc1-c1ccc(C(=O)O)cc1 (stereo not shown) No

Next compound: CCOC(=O)C1=C(C)NC2=C(C(=O)CCC2)C1c1c(OC)ccc2ccccc12 (stereo not shown) No

Next compound: N#CC1=C(N)NC2=C(C(=O)CCC2)C1c1ccc(Br)cc1 (stereo not shown) No

Next compound: CCOC(=O)C1=C(C)NC(C)=C(C(=O)OCC)C1c1ccc(-c2ccccc2C(F)(F)F)o1 No

Next compound: COc1cccc(-c2ccccc2[C@@H]2C(C(=O)OCc3ccccc3)=C(C)Nc3nnnn32)c1 Yes

Next compound: CC1=C(C(=O)OCc2ccc(Cn3cccn3)cc2)C(c2cccs2)n2nnnc2N1 (stereo not shown) Yes

Next compound: CC1=C(C(=O)OCc2ccccc2)C(c2ccccc2)C2=C(CCCC2=O)N1 (stereo not shown) Yes
